experiment: MTT cell viability assay, compounds at 5, 1 and 0.2 μM, 48 hours; type: cell-based; details: human, A549 tumor cells, 5 μM
Listing: viability at 48 h, 5 µM of selected molecules

| Molecule | viability at 48 h, 5 µM |
| --- | --- |
| Nc1nccc(Oc2cccc(-c3nnc(Nc4cccc(C(F)(F)F)c4)[nH]3)c2)n1 [Compound 15] | > 70% |
| FC(F)(F)c1cccc(Nc2nnc(-c3cccc(Oc4ccnc5ccccc45)c3)[nH]2)c1 [Compound 23] | > 70% |
| Nc1cc(Oc2ccc(-c3nnc(Nc4cccc(C(F)(F)F)c4)[nH]3)cc2)c2ccccc2n1 [Compound 69] | > 70% |
| Nc1cc(Oc2cccc(-c3nnc(Nc4cccc(C(F)(F)F)c4)[nH]3)c2)ccn1 [Compound 18] | < 50% |
| FC(F)(F)Oc1ccc2c(Oc3ccc(-c4nnc(Nc5cccc(C(F)(F)F)c5)[nH]4)cc3)ccnc2c1 [Compound 163] | > 70% |
| Nc1cc(Oc2cccc(-c3nnc(Nc4cccc(C(F)(F)F)c4)o3)c2)ccn1 [Compound 38] | > 70% |
| CSc1nc(N)cc(Oc2ccc(-c3nnc(Nc4cccc(C(F)(F)F)c4)s3)cc2)n1 [Compound 44] | > 70% |
| FC(F)(F)c1cccc(Nc2nnc(-c3cccc(Oc4ccnc5[nH]ccc45)c3)[nH]2)c1 [Compound 85] | 50 to 70% |
